Tgt: Carboxy-terminal domain RNA polymerase II polypeptide A small phosphatase 1 (Homo sapiens)
Sequence (Q9GZU7 whole entry): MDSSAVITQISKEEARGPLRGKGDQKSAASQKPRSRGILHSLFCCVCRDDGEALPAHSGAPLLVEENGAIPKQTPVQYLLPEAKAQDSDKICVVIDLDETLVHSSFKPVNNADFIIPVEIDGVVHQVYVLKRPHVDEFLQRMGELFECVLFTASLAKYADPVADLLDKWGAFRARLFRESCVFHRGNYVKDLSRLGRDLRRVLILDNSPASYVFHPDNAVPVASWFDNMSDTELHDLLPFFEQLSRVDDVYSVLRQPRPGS
Measurement Notes: inhibitors of CTDSP1, concentration-response testing, biochemical assay, absorbance-based, actives from ultra-high-throughput screening (AID 540297)
Format: functional
The source made the active and inactive calls.
IC50 values, listed per item
Quantity: IC50

INSERT INTO assay_data (chemical_structure, quantity, reported_value) VALUES
  ('O=C(/C=C/c1ccco1)NCC(=O)N/N=C/c1ccc([N+](=O)[O-])cc1', 'IC50', '5.25 µM (active)'),
  ('CCCCCc1nnc(NC(=O)Cc2cccs2)s1', 'IC50', '3.73 µM (active)'),
  ('COc1ccc(CNC(=O)CSc2n[nH]c3c4cc(OC)ccc4nc-3n2)cc1', 'IC50', '8.05 µM (active)'),
  ('CC[n+]1c(C)n(-c2ccccc2)c2ccc(NC(C)=O)cc21', 'IC50', '5.18 µM (active)'),
  ('CC(=O)c1sc(C(=O)O)c(-c2ccco2)c1-c1ccco1', 'IC50', '15.5 µM (active)');

====

EC50 values, listed per item
Measurement Notes: C. albicans growth with fluconazole, confirmation, fluorescence, retest (AID 2467)
Type: functional, cell-based
The source made the active and inactive calls.
Quantity: EC50

INSERT INTO assay_data (chemical_structure, quantity, reported_value) VALUES
  ('Oc1nc(-c2ccccn2)nc(C(F)(F)F)c1Br', 'EC50', '596 nM (active)'),
  ('O=S(=O)(O)c1cc(O)c2c(O)c(N=Nc3cc(Cl)ccc3O)c(S(=O)(=O)O)cc2c1', 'EC50', '> 38000 nM (not active)'),
  ('Cc1onc(-c2c(F)cccc2Cl)c1C(=O)NNC(=O)C1CCN(Cc2ccccc2)CC1', 'EC50', '> 38000 nM (not active)'),
  ('CCCOc1cccc(-c2nnc(NC(=O)c3ccco3)s2)c1', 'EC50', '1910 nM (active)'),
  ('O=C(Oc1c(Cl)cc(Cl)c2cccnc12)c1cccs1', 'EC50', '122 nM (active)');

====

Tgt: Genome polyprotein (dengue virus type 2, UniProt P29990)
Measurement Notes: Dengue-2 NS5 methyltransferase inhibitors, primary screen, biochemical, confirmation dose response (AID 588689)
Format: functional
Activity calls are given as the source filed them.
Quantity: IC50

INSERT INTO measurements (compound, quantity, reported_value) VALUES
  ('CCOC(=O)c1c2c(n(-c3ccc(OC)cc3)c1C)C(=O)C(=O)c1ccccc1-2', 'IC50', '47 µM (active)'),
  ('O=C1NC(=O)/C(=C/c2ccc(-c3cc(C(=O)O)ccc3Cl)o2)S1', 'IC50', '49.4 µM (active)'),
  ('COc1cc(/C=C2/C(=O)ON=C2C)ccc1OCc1cccc(F)c1', 'IC50', '24.1 µM (active)'),
  ('CC(C)C1Nc2c(O)cc(Cl)c([N+](=O)[O-])c2C2C=CCC21 (stereo not given)', 'IC50', '68.9 µM (active)'),
  ('CC(=O)OCCCNc1cc(Sc2nc3ccccc3s2)c2nonc2c1[N+](=O)[O-]', 'IC50', '> 100 µM (active)');
